target: human V2 receptor (Homo sapiens); assay: V2 vasopressin receptor functional activity (cAMP accumulation); format: cell-based; design: expressed in transfected cells; host or cells: HEK-293
Sequence (P30518 whole entry): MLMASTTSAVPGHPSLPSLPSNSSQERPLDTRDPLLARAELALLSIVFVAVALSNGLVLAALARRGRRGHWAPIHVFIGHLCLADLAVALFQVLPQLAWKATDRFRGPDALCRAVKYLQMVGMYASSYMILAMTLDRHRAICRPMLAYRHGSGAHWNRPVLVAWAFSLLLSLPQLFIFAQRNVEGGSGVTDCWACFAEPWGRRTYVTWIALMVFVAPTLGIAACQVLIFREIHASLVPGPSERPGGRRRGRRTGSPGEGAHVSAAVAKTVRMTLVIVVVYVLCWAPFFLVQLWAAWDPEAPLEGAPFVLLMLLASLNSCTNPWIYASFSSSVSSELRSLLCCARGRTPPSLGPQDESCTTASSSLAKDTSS
Reported endpoint: pIC50
// returns pIC50 (minus log10 of molar concentration), number only

Query: Request - read-out pIC50 | tested on human V2 receptor (Homo sapiens) | compound COc1cc(C(=O)N2CC[C@@]3(CCC(=NO)C3)Cc3ccccc32)ccc1NC(=O)c1cc(F)ccc1Cl [Cpd 15]
Reply: 6.40

---

molecular target: human V2 receptor (Homo sapiens); test: In-vitro binding assay (3H-arginine-8-vasopressin), V2; conditions: membrane containing human V2 receptor; 3H-arginine-8-vasopressin 0.65-0.75 nM
Recorded IC50 values for a group of molecules are listed next.
Reply numerically in nM, unit not repeated.

Query: Bench note: what IC50 did Cn1ccnc1C1=CCCC12CCN(C(=O)c1ccc(NC(=O)c3cc(F)ccc3Cl)cc1)c1ccccc1C2 (centres unmarked) show?
Reply: 84

Next:
Query: Fill in: IC50 of O=C(NN=C1CCCC12CCN(C(=O)c1ccc(NC(=O)c3cc(F)ccc3Cl)cc1)c1ccccc1C2)c1cccnc1 (centres unmarked) is ___
Reply: 62

Query: Name the recorded IC50 for COc1cc(C(=O)N2CCC3(CCCC3=NO)Cc3ccccc32)ccc1NC(=O)c1cc(F)ccc1Cl (centres unmarked) .
Reply: 39
